# Tested on: biofilm-producing Staphylococcus epidermidis strains
# experimental.details: Inhibition of biofilm formation (MBIC, resazurin)
# Type: cell-based
# test.settings: clinical strain 1 (Table S4)
measurement.label: MBIC (µg/mL)
Answers are plain numbers, in µg/mL.

O=S(=O)(NC1CCN(CCC(Oc2ccc(C(F)(F)F)cc2)c2ccccc2)CC1)c1cccc(Cl)c1 (stereo not shown) [Compound 12] ... 125
O=C(Nc1cccc(Cl)c1)NC1CCN(CCC(Oc2ccc(C(F)(F)F)cc2)c2cccs2)CC1 (stereo not shown) [Compound 25] ... 15.6
CC(=O)NC[C@H]1CN(c2ccc(N3CCOCC3)c(F)c2)C(=O)O1 [linezolid, reference compound] ... 15.6

Continue with the next molecule.
# input Data request, read-out MBIC, for O=S(=O)(NC1CCN(CCC(Oc2ccc(C(F)(F)F)cc2)c2cccs2)CC1)c1cccc(Cl)c1 (stereo not shown) [Compound 14]
# output 31.25
